Where these numbers come from: patent US7507739B2

Tested on: HeLa cells
ASSAY TEXT: Cell cycle analysis with HeLa cells
Type: cell-based, human
EXPERIMENTAL SETUP: 18 hr, 20 nM

COMPOUND | Percent in Cell Cycle Phase G1, %
CNCCCOc1cc(F)c(-c2c(Cl)nc3ncnn3c2NCC(F)(F)F)c(F)c1.Cl | 42
CC(=O)O[C@@]12CO[C@@H]1C[C@H](O)[C@@]1(C)C(=O)[C@H](O)C3=C(C)[C@@H](OC(=O)[C@H](O)[C@@H](NC(=O)OC(C)(C)C)c4ccccc4)C[C@@](O)([C@@H](OC(=O)c4ccccc4)[C@H]21)C3(C)C [Docetaxel, reference compound] | 8
CN(C)CCCOc1cc(F)c(-c2c(Cl)nc3ncnn3c2NCC(F)(F)F)c(F)c1.Cl | 60
C[C@H](Nc1c(-c2c(F)cc(OCCCN(C)C)cc2F)c(Cl)nc2ncnn12)C(F)(F)F.Cl | 54
COc1cc2c(c(OC)c1OC)-c1ccc(OC)c(=O)cc1[C@@H](NC(C)=O)CC2 [Colchicine, reference compound] | 40
CC[C@]1(O)C[C@H]2CN(CCc3c([nH]c4ccccc34)[C@@](C(=O)OC)(c3cc4c(cc3OC)N(C=O)[C@H]3[C@@](O)(C(=O)OC)[C@H](OC(C)=O)[C@]5(CC)C=CCN6CC[C@]43[C@@H]65)C2)C1 [Vincristine, reference compound] | 15
CNCCCOc1cc(F)c(-c2c(Cl)nc3ncnn3c2N[C@@H](C)C(F)(F)F)c(F)c1.Cl | 41

###

Each record here notes measured Percent in Cell Cycle Phase S.
Test system: HeLa cells
ASSAY TEXT: Cell cycle analysis with HeLa cells
Format: cell-based, human
EXPERIMENTAL SETUP: 18 hr, 80 nM
QUANTITY KIND: Percent in Cell Cycle Phase S (%)

COMPOUND | UNIT SPEC | VALUE
CNCCCOc1cc(F)c(-c2c(Cl)nc3ncnn3c2N[C@@H](C)C(F)(F)F)c(F)c1.Cl [Example 2a] | % | 11
CN(C)CCCOc1cc(F)c(-c2c(Cl)nc3ncnn3c2NCC(F)(F)F)c(F)c1.Cl [Example 4a] | % | 7
C[C@H](Nc1c(-c2c(F)cc(OCCCN(C)C)cc2F)c(Cl)nc2ncnn12)C(F)(F)F.Cl [Example 1a] | % | 9
CNCCCOc1cc(F)c(-c2c(Cl)nc3ncnn3c2NCC(F)(F)F)c(F)c1.Cl [Example 3a] | % | 11

###

Tested on: microtubules
ASSAY TEXT: Competitive binding test, [3H]paclitaxel
Set-up: species or system bovine
EXPERIMENTAL SETUP: [3H]paclitaxel 2.1 μM, competitor 20 μM (5 μM for unlabeled paclitaxel)
Experimental: Medium is RPMI-1640 with L-glutamine, supplemented with 10% heat-inactivated fetal calf serum, 100 units/ml penicillin, and 100 μg/ml streptomycin (Gibco, Grand Island, N.Y.). Microtubule-associated protein (MAP)-rich tubulin, containing about 70% tubulin and 30% MAPs (#ML113), and highly purified tubulin (>99% pure, #TL238), both from bovine brain, are obtained from Cytoskeleton, Inc., Denver, Colo. […]
Here the recorded [3H]Paclitaxel binding, percent of control without competitor, Mean is given for each entry.
QUANTITY KIND: [3H]Paclitaxel binding, percent of control without competitor, Mean

MOLECULE | STUDY SYSTEM | VALUE
CNCCCOc1cc(F)c(-c2c(Cl)nc3ncnn3c2C2CCCCCC2)c(F)c1.O=C(O)C(F)(F)F | microtubules | 93%
C[C@H](Nc1c(-c2c(F)cc(OCCCO)cc2F)c(Cl)nc2ncnn12)C(F)(F)F | microtubules | 104%
CC[C@]1(O)C[C@H]2CN(CCc3c([nH]c4ccccc34)[C@@](C(=O)OC)(c3cc4c(cc3OC)N(C=O)[C@H]3[C@@](O)(C(=O)OC)[C@H](OC(C)=O)[C@]5(CC)C=CCN6CC[C@]43[C@@H]65)C2)C1 [Vincristine, reference compound] | microtubules | 22%

###

Tested on: HeLa cells
ASSAY TEXT: Cell cycle analysis with HeLa cells
Format: cell-based, human
EXPERIMENTAL SETUP: 18 hr, 110 nM
Recorded measurements of Percent in Cell Cycle Phase G2/M, one per entry

CHEM SMILES | Percent in Cell Cycle Phase G2/M / %
CNCCCOc1cc(F)c(-c2c(Cl)nc3ncnn3c2NCC(F)(F)F)c(F)c1.Cl | 54
C[C@H](Nc1c(-c2c(F)cc(OCCCN(C)C)cc2F)c(Cl)nc2ncnn12)C(F)(F)F.Cl | 53
CN(C)CCCOc1cc(F)c(-c2c(Cl)nc3ncnn3c2NCC(F)(F)F)c(F)c1.Cl | 56
CNCCCOc1cc(F)c(-c2c(Cl)nc3ncnn3c2N[C@@H](C)C(F)(F)F)c(F)c1.Cl | 37

###

Some molecules, each annotated with its measured Percent in Cell Cycle Phase >4N.
Test system: HeLa cells
ASSAY TEXT: Cell cycle analysis with HeLa cells
Assay type: cell-based, human
EXPERIMENTAL SETUP: 18 hr, 110 nM
Method: HeLa cells are harvested by trypsinization, washed, counted and distributed to wells of 12-well plates at 125,000 cells per well in 2 mL medium. Cells are cultured overnight. […] Cells are continued in culture for 18 hr after compound addition, then cells in each well are harvested (taking care to recover both adherent and non-adherent cells) and processed using the CycleTEST PLUS kit (Becton Dickinson Immunocytometry Systems, San Jose, Calif.). […]
QUANTITY KIND: Percent in Cell Cycle Phase >4N (%)

CHEM SMILES | VALUE
CNCCCOc1cc(F)c(-c2c(Cl)nc3ncnn3c2NCC(F)(F)F)c(F)c1.Cl | 5
CNCCCOc1cc(F)c(-c2c(Cl)nc3ncnn3c2N[C@@H](C)C(F)(F)F)c(F)c1.Cl | 4
CN(C)CCCOc1cc(F)c(-c2c(Cl)nc3ncnn3c2NCC(F)(F)F)c(F)c1.Cl | 5
C[C@H](Nc1c(-c2c(F)cc(OCCCN(C)C)cc2F)c(Cl)nc2ncnn12)C(F)(F)F.Cl | 5

###

# Percent in Cell Cycle Phase Apop annotations
Test system: HeLa cells
ASSAY TEXT: Cell cycle analysis with HeLa cells
Format: cell-based, human
EXPERIMENTAL SETUP: 18 hr, 40 nM

COMPOUND | UNIT SPEC | Percent in Cell Cycle Phase Apop
C[C@H](Nc1c(-c2c(F)cc(OCCCN(C)C)cc2F)c(Cl)nc2ncnn12)C(F)(F)F.Cl [Example 1a] | % | 71
COc1cc2c(c(OC)c1OC)-c1ccc(OC)c(=O)cc1[C@@H](NC(C)=O)CC2 [Colchicine, reference compound] | % | 11
CNCCCOc1cc(F)c(-c2c(Cl)nc3ncnn3c2NCC(F)(F)F)c(F)c1.Cl [Example 3a] | % | 50

###

Tested on: microtubules
ASSAY TEXT: Competitive binding test, [3H]paclitaxel
Parameters: species or system bovine
EXPERIMENTAL SETUP: [3H]paclitaxel 2.1 μM, competitor 20 μM (5 μM for unlabeled paclitaxel)
QUANTITY KIND: [3H]Paclitaxel binding, percent of control without competitor, Mean (%)

COMPOUND | STUDY SYSTEM | VALUE
CC(=O)O[C@H]1C(=O)[C@@]2(C)[C@H]([C@H](OC(=O)c3ccccc3)[C@]3(O)C[C@H](OC(=O)[C@H](O)[C@@H](NC(=O)c4ccccc4)c4ccccc4)C(C)=C1C3(C)C)[C@]1(OC(C)=O)CO[C@@H]1C[C@@H]2O [Paclitaxel, reference compound] | microtubules | 35
OCCCOc1cc(F)c(-c2c(Cl)nc3ncnn3c2C2CCCCCC2)c(F)c1 | microtubules | 91
C[C@H](Nc1c(-c2c(F)cc(OCCCN3CCOCC3)cc2F)c(Cl)nc2ncnn12)C(F)(F)F.Cl [Example 11a] | microtubules | 107
C[C@H](Nc1c(-c2c(F)cc(OCCCN(C)C)cc2F)c(Cl)nc2ncnn12)C(F)(F)F.Cl | microtubules | 108
CNCCCOc1cc(F)c(-c2c(Cl)nc3ncnn3c2NCC(F)(F)F)c(F)c1.Cl | microtubules | 105
CNCCCOc1cc(F)c(-c2c(Cl)nc3ncnn3c2N[C@@H](C)C(F)(F)F)c(F)c1.Cl | microtubules | 104
C[C@H](Nc1c(-c2c(F)cc(OCCCN(C)C)cc2F)c(Br)nc2ncnn12)C(F)(F)F | microtubules | 99
CN(C)CCCOc1cc(F)c(-c2c(Cl)nc3ncnn3c2NCC(F)(F)F)c(F)c1.Cl | microtubules | 104

###

System: LOX Human Melanoma
ASSAY TEXT: Human tumor xenograft test, LOX
Format: in vivo, athymic mice
EXPERIMENTAL SETUP: LOX, 3 mg/kg IV, days 1, 5, 9, 13

CHEM SMILES | T/C on day 13
CNCCCOc1cc(F)c(-c2c(Cl)nc3ncnn3c2N[C@@H](C)C(F)(F)F)c(F)c1.Cl | 0.36
CNCCCOc1cc(F)c(-c2c(Cl)nc3ncnn3c2NCC(F)(F)F)c(F)c1.Cl | 0.38
